System: SEM cells
assay procedure: cell viability relative to DMSO control; higher = less cytotoxic
condition info: RPMI 5 mM glucose + 10% dialyzed FBS; 48 h; 0.569 µM

compound | unit text | cell viability
Cc1cnc(C(=O)O)c[n+]1[O-] | % | 133
NC(=O)c1cccc2cn(-c3ccc([C@@H]4CCCNC4)cc3)nc12 | % | 109
COc1cc2nc(-c3cc(F)ccc3O)nc(N[C@@H]3CNC[C@H]3C(C)(C)O)c2cc1OC | % | 34.6
CC1=C(CC(=O)O)c2cc(F)ccc2/C1=C\c1ccc([S+](C)[O-])cc1 (stereo not drawn) | % | 105
CC[C@@]1(O)C(=O)OC\C2=C1\C=C\3N(CC4=C3N=C5C=CC=CC5=C4)C2=O | % | 7.26
N[S+](=O)([O-])c1cccc2c1C(=O)c1cccc(O)c1C2=O | % | 40.8
CCC(=O)N[C@H]1CC[C@H](C(=O)N(C)c2ccc(-c3nc4ccccc4o3)cc2)C1 | % | 96
COC/1=C/C=C2\C(=C/C1=O)[C@H](CCC3=CC(=C(OC)C(=C23)OC)OC)NC(C)=O | % | 7.02
